Assay: Inhibition of Mycobacterium tuberculosis DprE1 using farnesyl-phosphoryl-beta-D-ribofuranose as substrate preincubated for 30 mins before substrate addition by peroxidase coupled assay
Assignment: determine reported pIC50 for the given molecules.
// scale note: pIC50 = -log10(conc_M); give the bare number

(Q) Supply pIC50 value. Item: O=[N+]([O-])c1cc(C(F)(F)F)cc2nc(CN3CCOCC3)sc12
(A) 5.28

(Q) Return pIC50 (reported value) for this molecule: Cc1c(C(F)(F)F)cc2nc(C(=O)N[C@@H](CO)C(=O)N3CCCC3)sc2c1[N+](=O)[O-]
(A) 5.92

(Q) Quickly give me recorded pIC50 for CNC(=O)c1cc([N+](=O)[O-])c2sc(C(=O)N3CCCCC3)nc2c1
(A) 4.28

(Q) Given the molecule COCc1nc2cc(C(F)(F)F)cc([N+](=O)[O-])c2s1 , write its reported pIC50.
(A) 5.23

(Q) Let me know recorded pIC50 for O=C(NCc1ccccn1)c1nc2cc(C(F)(F)F)cc([N+](=O)[O-])c2s1 , thanks.
(A) 6.34

(Q) Return reported pIC50. Input molecule: O=C(c1sc2c([N+](=O)[O-])cc(C(F)(F)F)cc2[n+]1[O-])N1CCCCC1
(A) 7.02

* * *

Please respond with reported MIC for every item in the list.
Test system: Mycobacterium tuberculosis
Test: Antimycobacterial activity against Mycobacterium tuberculosis H37Rv ATCC 27294 after 5 days by microdilution method
Assay type: functional
Settings: H37Rv ATCC 27294, 120 h

(Q) Write down MIC measured for item Cc1c(C(F)(F)F)cc2nc(C(=O)N[C@@H](CO)C(=O)N3CCCC3)sc2c1[N+](=O)[O-]
(A) 1 µg/mL

(Q) Note down MIC recorded for N#Cc1cc([N+](=O)[O-])c2sc(C(=O)N3CCCCC3)nc2c1
(A) 1 µg/mL

(Q) Respond only with MIC recorded for O=[N+]([O-])c1cc(C(F)(F)F)cc2nc(CN3CCOCC3)sc12
(A) > 32 µg/mL

(Q) Kindly indicate its recorded MIC. Item: O=C(N[C@@H](CO)C(=O)N1CCCC1)c1nc2cc(C(F)(F)F)cc([N+](=O)[O-])c2s1
(A) 0.35 µg/mL

(Q) Provide MIC value for the following compound: Cc1c(C(F)(F)F)cc2nc(C3=N[C@H](C(=O)N4CCCC4)CO3)sc2c1[N+](=O)[O-]
(A) 2 µg/mL

(Q) Please list MIC recorded for the compound O=C(NCc1ccccn1)c1nc2cc(C(F)(F)F)cc([N+](=O)[O-])c2s1
(A) 0.6 µg/mL

(Q) For the compound C[C@H](NC(=O)c1sc2c([N+](=O)[O-])cc(C(F)(F)F)cc2[n+]1[O-])C(=O)C1CCCC1 , give its measured MIC value.
(A) 0.02 µg/mL

(Q) Fill in MIC for record O=C(c1nc2cc(C(F)(F)F)cc([N+](=O)[O-])c2s1)N1CCOCC1
(A) 0.1 µg/mL

(Q) Supply reported MIC belonging to this compound: COCc1nc2cc(C(F)(F)F)cc([N+](=O)[O-])c2s1
(A) > 32 µg/mL

* * *

Molecular target: Cytochrome P450 2C9 (Homo sapiens, UniProt P11712)
Sequence (P11712 whole entry): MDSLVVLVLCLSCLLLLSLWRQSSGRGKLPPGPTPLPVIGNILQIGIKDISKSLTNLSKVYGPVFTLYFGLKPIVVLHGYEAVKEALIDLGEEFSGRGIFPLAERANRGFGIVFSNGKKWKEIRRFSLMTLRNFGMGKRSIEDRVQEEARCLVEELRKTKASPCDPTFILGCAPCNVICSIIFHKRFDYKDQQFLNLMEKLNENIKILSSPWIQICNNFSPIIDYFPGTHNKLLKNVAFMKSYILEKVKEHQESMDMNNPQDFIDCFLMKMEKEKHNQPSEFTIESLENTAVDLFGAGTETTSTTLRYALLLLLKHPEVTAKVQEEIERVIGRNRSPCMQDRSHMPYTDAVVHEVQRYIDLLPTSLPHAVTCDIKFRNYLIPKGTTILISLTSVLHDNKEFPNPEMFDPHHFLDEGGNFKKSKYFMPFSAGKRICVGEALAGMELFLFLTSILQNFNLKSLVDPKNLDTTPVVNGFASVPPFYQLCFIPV
Assay: Inhibition of human recombinant CYP2C9 by fluorescence assay
Format: ADME
Conditions: read-out: IC50
measurement.label: IC50 (µM)
Output spec: scalar in µM, unitless text.

(Q) Dear colleague, please send me the reported IC50 for Cc1c(C(F)(F)F)cc2nc(C3=N[C@H](C(=O)N4CCCC4)CO3)sc2c1[N+](=O)[O-] when you can.
(A) 22.1

(Q) Provide measured IC50 value, entry: O=C(c1sc2c([N+](=O)[O-])cc(C(F)(F)F)cc2[n+]1[O-])N1CCCCC1
(A) 26.6

(Q) Read the entry O=C([C@@H]1COC(c2nc3cc(C(F)(F)F)cc([N+](=O)[O-])c3s2)=N1)N1CCCC1 and write its reported IC50.
(A) 12.4

* * *

Hi there, I'd appreciate the recorded IC50 for every entry that follows.
Biological target: Cytochrome P450 2C19 (Homo sapiens)
Sequence (P33261 whole entry): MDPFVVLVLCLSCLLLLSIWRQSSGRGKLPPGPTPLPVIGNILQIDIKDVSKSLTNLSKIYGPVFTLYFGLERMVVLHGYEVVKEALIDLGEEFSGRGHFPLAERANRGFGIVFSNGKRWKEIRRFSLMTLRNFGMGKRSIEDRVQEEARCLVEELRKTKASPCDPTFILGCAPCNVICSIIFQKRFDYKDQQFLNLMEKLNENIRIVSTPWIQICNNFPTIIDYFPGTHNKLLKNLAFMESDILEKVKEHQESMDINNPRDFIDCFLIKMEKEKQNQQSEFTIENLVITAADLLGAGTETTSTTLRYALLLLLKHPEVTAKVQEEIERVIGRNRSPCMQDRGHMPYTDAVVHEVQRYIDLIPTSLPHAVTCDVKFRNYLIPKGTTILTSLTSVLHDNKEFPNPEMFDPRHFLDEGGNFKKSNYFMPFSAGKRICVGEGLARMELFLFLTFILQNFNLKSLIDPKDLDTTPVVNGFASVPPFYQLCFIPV
Test: Inhibition of human recombinant CYP2C19 by fluorescence assay
A number alone suffices; assume µM.

(Q) Please indicate IC50 recorded for O=C([C@@H]1COC(c2nc3cc(C(F)(F)F)cc([N+](=O)[O-])c3s2)=N1)N1CCCC1
(A) 24.2

(Q) // fetch IC50 given entry O=C(c1sc2c([N+](=O)[O-])cc(C(F)(F)F)cc2[n+]1[O-])N1CCCCC1
(A) 17.7

(Q) Identify the reported IC50 for the following entry. COCCN1CCN(C(=O)c2nc3cc(C(F)(F)F)cc([N+](=O)[O-])c3s2)CC1
(A) 55.9

(Q) Consider the compound COCCN1CCN(C(=O)c2nc3cc(C(F)(F)F)c(C)c([N+](=O)[O-])c3s2)CC1 and give its recorded IC50.
(A) 64.9

(Q) Report IC50, nothing else, for this compound: Cc1c(C(F)(F)F)cc2nc(C3=N[C@H](C(=O)N4CCCC4)CO3)sc2c1[N+](=O)[O-]
(A) 73.5

* * *

Biological target: Cytochrome P450 3A4 (Homo sapiens, UniProt P08684)
Sequence (P08684 whole entry): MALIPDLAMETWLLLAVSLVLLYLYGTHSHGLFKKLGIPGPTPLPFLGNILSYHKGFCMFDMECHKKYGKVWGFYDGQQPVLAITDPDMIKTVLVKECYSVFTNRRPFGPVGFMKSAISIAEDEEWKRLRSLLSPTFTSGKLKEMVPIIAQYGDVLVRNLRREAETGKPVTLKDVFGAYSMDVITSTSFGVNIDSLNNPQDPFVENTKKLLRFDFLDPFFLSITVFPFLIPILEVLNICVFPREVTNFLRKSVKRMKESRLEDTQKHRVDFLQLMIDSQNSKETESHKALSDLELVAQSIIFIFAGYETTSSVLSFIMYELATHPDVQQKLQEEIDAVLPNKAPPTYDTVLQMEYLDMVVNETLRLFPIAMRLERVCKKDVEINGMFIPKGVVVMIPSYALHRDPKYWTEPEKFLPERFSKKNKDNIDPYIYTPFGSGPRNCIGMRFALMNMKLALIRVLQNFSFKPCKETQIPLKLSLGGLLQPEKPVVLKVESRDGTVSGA
Assay: Inhibition of human recombinant CYP3A4 by fluorescence assay
Could you please report measured pIC50 for the items listed next?
Schema: pIC50 number; meaning minus log10 of the concentration expressed in molar units.

(Q) Tell us which pIC50 value is on record for COCCN1CCN(C(=O)c2nc3cc(C(F)(F)F)c(C)c([N+](=O)[O-])c3s2)CC1
(A) 4.02

(Q) Give the value of pIC50 reported for the following: O=C(c1sc2c([N+](=O)[O-])cc(C(F)(F)F)cc2[n+]1[O-])N1CCCCC1
(A) 5.41

(Q) Entry COCCN1CCN(C(=O)c2nc3cc(C(F)(F)F)cc([N+](=O)[O-])c3s2)CC1 needs its pIC50 filled in; supply it.
(A) 4.71

(Q) Item O=C([C@@H]1COC(c2nc3cc(C(F)(F)F)cc([N+](=O)[O-])c3s2)=N1)N1CCCC1 : provide pIC50
(A) 4.73

* * *

Biological target: UniProt:P10635
Sequence (P10635 whole entry): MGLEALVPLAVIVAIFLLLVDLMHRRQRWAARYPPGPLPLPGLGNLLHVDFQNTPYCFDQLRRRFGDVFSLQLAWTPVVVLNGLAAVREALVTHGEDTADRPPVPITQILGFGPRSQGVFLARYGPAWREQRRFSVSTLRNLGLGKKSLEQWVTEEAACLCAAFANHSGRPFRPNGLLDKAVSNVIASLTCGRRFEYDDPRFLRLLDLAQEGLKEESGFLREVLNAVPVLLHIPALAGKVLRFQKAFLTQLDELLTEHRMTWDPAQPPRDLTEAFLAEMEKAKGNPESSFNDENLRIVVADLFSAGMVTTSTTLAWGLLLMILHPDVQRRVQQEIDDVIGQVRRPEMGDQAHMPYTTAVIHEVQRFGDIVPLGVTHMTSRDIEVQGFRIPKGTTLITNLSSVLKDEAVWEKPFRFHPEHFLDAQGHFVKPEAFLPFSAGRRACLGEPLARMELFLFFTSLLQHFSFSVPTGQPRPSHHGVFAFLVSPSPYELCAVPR
Experiment: Inhibition of human recombinant CYP2D6 by fluorescence assay
Please respond with reported pIC50 for every item in the list.
Reminder that pIC50 is minus the log10 of a molar concentration.

(Q) Give UniProt:P10635 pIC50 for the following compound: O=C(c1sc2c([N+](=O)[O-])cc(C(F)(F)F)cc2[n+]1[O-])N1CCCCC1
(A) 5.92

(Q) Quote UniProt:P10635 pIC50 for entry O=C([C@@H]1COC(c2nc3cc(C(F)(F)F)cc([N+](=O)[O-])c3s2)=N1)N1CCCC1 .
(A) 5.47

(Q) Enter recorded pIC50 with UniProt:P10635 for COCCN1CCN(C(=O)c2nc3cc(C(F)(F)F)cc([N+](=O)[O-])c3s2)CC1 here.
(A) 5.28

(Q) Answer briefly: pIC50 recorded on UniProt:P10635 for COCCN1CCN(C(=O)c2nc3cc(C(F)(F)F)c(C)c([N+](=O)[O-])c3s2)CC1
(A) 4.23

* * *

What IC50 was measured for each of the following?
Tested on: A549
Assay: Cytotoxicity against human A549 cells after 72 hrs by fluorescence assay
Format: cell-based
Conditions: A549, 72 h
Please state the figure in µM; there is no need to write the unit.

(Q) Write down IC50 measured for item COCCN1CCN(C(=O)c2nc3cc(C(F)(F)F)c(C)c([N+](=O)[O-])c3s2)CC1
(A) 100

(Q) Entry O=C(c1sc2c([N+](=O)[O-])cc(C(F)(F)F)cc2[n+]1[O-])N1CCCCC1 needs its IC50 filled in; supply it.
(A) 24

(Q) Indicate its recorded IC50; the compound in question is COCCN1CCN(C(=O)c2nc3cc(C(F)(F)F)cc([N+](=O)[O-])c3s2)CC1
(A) 90

(Q) Return IC50 (reported value) for this compound: O=C([C@@H]1COC(c2nc3cc(C(F)(F)F)cc([N+](=O)[O-])c3s2)=N1)N1CCCC1
(A) 82

* * *

Molecular target: Cytochrome P450 1A2 (Homo sapiens, UniProt P05177)
Sequence (P05177 whole entry): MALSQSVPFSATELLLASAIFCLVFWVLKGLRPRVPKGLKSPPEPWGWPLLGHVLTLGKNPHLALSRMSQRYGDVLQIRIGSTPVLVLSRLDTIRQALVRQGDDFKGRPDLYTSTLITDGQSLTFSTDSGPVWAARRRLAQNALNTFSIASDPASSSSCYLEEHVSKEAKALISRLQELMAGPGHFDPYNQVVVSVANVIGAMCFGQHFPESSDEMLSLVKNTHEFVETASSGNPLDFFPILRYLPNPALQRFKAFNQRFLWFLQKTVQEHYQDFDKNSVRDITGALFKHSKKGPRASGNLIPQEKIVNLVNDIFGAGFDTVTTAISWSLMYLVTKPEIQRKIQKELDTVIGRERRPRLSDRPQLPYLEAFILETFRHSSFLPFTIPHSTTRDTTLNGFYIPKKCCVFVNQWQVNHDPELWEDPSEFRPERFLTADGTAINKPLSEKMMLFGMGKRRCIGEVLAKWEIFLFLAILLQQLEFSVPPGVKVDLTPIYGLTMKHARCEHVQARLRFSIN
Assay: Inhibition of human recombinant CYP1A2 by fluorescence assay
For each entry below, report its IC50 value.

(Q) Tell me its IC50 given COCCN1CCN(C(=O)c2nc3cc(C(F)(F)F)cc([N+](=O)[O-])c3s2)CC1 as the entry.
(A) 17.9 µM

(Q) Return value of IC50 for input O=C([C@@H]1COC(c2nc3cc(C(F)(F)F)cc([N+](=O)[O-])c3s2)=N1)N1CCCC1 , no commentary.
(A) 53.1 µM

(Q) Give the reported value of IC50 for this record: Cc1c(C(F)(F)F)cc2nc(C3=N[C@H](C(=O)N4CCCC4)CO3)sc2c1[N+](=O)[O-]
(A) > 100 µM

(Q) Please report IC50 for the following molecule: O=C(c1sc2c([N+](=O)[O-])cc(C(F)(F)F)cc2[n+]1[O-])N1CCCCC1
(A) 14.7 µM

(Q) Quickly give me recorded IC50 for COCCN1CCN(C(=O)c2nc3cc(C(F)(F)F)c(C)c([N+](=O)[O-])c3s2)CC1
(A) 9.56 µM
